Molecular target: Cystic fibrosis transmembrane conductance regulator (Homo sapiens, UniProt P13569)
Experiment: Inhibition of human CFTR expressed in rat FRT cells assessed as inhibition of CPT-cAMP-induced apical membrane current in presence of transepithelial chloride gradient and basolateral membrane permeabilization with amphotericin B by short-circuit current analysis
Assay type: cell-based
Sequence (P13569 whole entry): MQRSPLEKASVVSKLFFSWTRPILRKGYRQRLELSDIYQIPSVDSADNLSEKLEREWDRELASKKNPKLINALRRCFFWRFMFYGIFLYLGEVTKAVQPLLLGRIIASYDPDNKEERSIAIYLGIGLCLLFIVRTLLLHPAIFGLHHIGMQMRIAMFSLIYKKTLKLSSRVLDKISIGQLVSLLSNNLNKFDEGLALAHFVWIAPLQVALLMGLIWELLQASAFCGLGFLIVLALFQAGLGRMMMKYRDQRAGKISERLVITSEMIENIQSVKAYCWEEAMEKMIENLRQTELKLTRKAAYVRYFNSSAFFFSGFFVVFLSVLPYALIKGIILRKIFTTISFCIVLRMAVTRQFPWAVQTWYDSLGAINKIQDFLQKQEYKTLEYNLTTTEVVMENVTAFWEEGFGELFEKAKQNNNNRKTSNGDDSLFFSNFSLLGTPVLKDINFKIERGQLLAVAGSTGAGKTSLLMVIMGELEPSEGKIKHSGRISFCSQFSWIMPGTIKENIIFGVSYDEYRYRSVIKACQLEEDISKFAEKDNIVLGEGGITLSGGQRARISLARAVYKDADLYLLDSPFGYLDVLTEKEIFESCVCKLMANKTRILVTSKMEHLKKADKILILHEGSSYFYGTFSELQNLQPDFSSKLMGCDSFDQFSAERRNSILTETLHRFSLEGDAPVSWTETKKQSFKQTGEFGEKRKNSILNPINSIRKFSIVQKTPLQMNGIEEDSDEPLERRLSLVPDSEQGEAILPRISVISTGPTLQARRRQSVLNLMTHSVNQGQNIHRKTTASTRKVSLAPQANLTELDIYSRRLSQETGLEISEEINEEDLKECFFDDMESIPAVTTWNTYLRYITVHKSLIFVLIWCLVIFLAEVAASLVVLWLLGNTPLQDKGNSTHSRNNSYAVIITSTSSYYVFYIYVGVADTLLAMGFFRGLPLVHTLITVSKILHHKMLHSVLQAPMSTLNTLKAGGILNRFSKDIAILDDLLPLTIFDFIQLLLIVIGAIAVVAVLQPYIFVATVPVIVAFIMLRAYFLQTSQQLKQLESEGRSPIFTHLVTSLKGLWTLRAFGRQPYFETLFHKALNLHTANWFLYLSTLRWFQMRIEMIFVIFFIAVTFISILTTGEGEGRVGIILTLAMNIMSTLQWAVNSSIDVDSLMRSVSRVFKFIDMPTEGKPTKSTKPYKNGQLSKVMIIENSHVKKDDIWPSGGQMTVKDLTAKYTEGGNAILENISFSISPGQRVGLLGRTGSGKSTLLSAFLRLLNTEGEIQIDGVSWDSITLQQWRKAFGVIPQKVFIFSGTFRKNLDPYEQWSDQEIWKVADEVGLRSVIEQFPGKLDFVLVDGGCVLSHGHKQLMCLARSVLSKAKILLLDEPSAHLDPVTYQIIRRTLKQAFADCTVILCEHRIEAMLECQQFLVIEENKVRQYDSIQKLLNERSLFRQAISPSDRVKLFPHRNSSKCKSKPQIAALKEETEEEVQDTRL

compound | IC50
Cc1ccc(C2Nc3ccccc3-n3c(-c4ccccc4)c4c(=O)n(C)c(=O)n(C)c4c32)o1 (stereo unspecified) | 90 nM

---

Biological target: Cystic fibrosis transmembrane conductance regulator (Homo sapiens, UniProt P13569)
Experiment: Inhibition of human CFTR expressed in rat FRT cells coexpressing halide indicator YFP-H148Q assessed as inhibition of halide influx at 25 uM preincubated for 15 mins by FLIPR
Assay type: cell-based
Sequence (P13569 whole entry, looked up): as the sequence (P13569 whole entry) above
Decide by inhibition: equal to or exceeding 90% means yes, less means no.

compound | labelValue
Cc1cccc(-c2c3c(=O)n(C)c(=O)n(C)c3c3n2-c2ccccc2NC3c2cccc(F)c2)c1 (stereo not drawn) | yes
Cn1c(=O)c2c(-c3ccccc3)n3c(c2n(C)c1=O)C(c1ccc(O)cc1)Nc1ccccc1-3 (stereo not drawn) | no
Cn1c(=O)c2c(-c3ccccc3)n3c(c2n(C)c1=O)C(c1cccc(F)c1F)Nc1ccccc1-3 (stereo not drawn) | yes
Cn1c(=O)c2c(-c3ccccc3)n3c(c2n(C)c1=O)C(c1ccccc1F)Nc1ccccc1-3 (stereo not drawn) | no
Cc1cccc(C2Nc3ccccc3-n3c(-c4ccccc4C)c4c(=O)n(C)c(=O)n(C)c4c32)c1 (stereo not drawn) | yes
Cc1cccc(-c2c3c(=O)n(C)c(=O)n(C)c3c3n2-c2ccccc2NC3c2ccc(O)cc2)c1 (stereo not drawn) | yes
